- TARGET OF ASSAY: human GcgR (Homo sapiens)
- Sequence (P47871 26-477): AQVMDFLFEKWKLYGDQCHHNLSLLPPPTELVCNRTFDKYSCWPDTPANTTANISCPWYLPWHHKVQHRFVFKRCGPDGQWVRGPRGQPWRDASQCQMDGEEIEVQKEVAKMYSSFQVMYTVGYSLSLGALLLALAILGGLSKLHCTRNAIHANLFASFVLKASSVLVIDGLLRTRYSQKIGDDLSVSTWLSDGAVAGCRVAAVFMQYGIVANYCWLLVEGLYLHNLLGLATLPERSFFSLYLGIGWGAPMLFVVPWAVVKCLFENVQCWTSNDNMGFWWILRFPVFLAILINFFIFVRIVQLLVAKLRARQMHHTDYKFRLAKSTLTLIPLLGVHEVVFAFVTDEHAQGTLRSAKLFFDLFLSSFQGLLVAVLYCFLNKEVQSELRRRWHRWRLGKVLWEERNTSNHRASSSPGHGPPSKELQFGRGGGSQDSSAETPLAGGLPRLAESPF
- PROCEDURE TEXT: Functional cAMP activity in the presence of 1% HSA
- Format: cell-based
- REPORTED CONDITIONS: read-out: cAMP Rel EC50, hGcgR
Starred links: 1 amine or outer side, 2 acyl side, 3 side chain; linkers in the order of their positions; H or OH if unused. Non-standard residues stand in square brackets, D forms with d. Groups on a side chain read outwards from the residue. No end group written: not given here. *: point of attachment. C18 diacid = O=C(O)CCCCCCCCCCCCCCCCC(=O)*; αMePhe(2-F) = C[C@](N)(Cc1ccccc1F)C(=O)O; γGlu = O=C(O)[C@H](CCC(=O)[*:2])N[*:1]; αMe4Pal = C[C@](N)(Cc1ccncc1)C(=O)O; αMeY = C[C@](N)(Cc1ccc(O)cc1)C(=O)O; 4Pal = N[C@@H](Cc1ccncc1)C(=O)O; αMeL = CC(C)C[C@](C)(N)C(=O)O; αMeS = C[C@](N)(CO)C(=O)O; Orn = NCCC[C@H](N)C(=O)O; AEEA = NCCOCCOCC(=O)O; Aib = CC(C)(N)C(=O)O
One threshold, 400 nM, splits the recorded EC50 values: lower ones are true (1), equal or higher ones are false (0).

Determine whether this substance shows EC50 lower than 400 nM (ties excluded): H-Y[Aib]QGTFTSDFS[Orn][αMeL]LDKK([AEEA-γGlu-γGlu-C18 diacid])AQ[Aib]AFIEYLLE[Aib]GPSSGAPPPSG[4Pal]-NH2 [Example 279]
false (0)

Does Y[Aib]QGTFTSD[4Pal]SK[αMeL]LDKK([AEEA-γGlu-C18 diacid])AQ[Aib]AFIEYLIA[Aib]GESSGEPPPSGE-NH2 [Example 286] have EC50 strictly under 400 nM?
true (1)

# TODO verify EC50 < 400 nM strictly for this substance: H-Y[Aib]QGT[αMePhe(2-F)]TSD[4Pal]SI[αMeL]LD[Orn]K([AEEA-γGlu-C18 diacid])AQ[αMe4Pal][Orn]FI[dE][αMeY]LIEGGPSSGEPPPESEE-NH2 [Example 753]
true (1)

Is EC50 of Y[Aib]QGT[αMePhe(2-F)]TSD[4Pal][αMeS]I[αMeL]LD[Orn]K([γGlu-γGlu-C18 diacid])AQ[Aib]NFI[dE][αMeY]LQEGGPSSGEPPPEGTE-NH2 [Example 526] strictly below 400 nM?
false (0)

Record H-Y[Aib]QGT[αMePhe(2-F)]TSD[4Pal][αMeS]ILLD[Orn]K([γGlu-γGlu-C18 diacid])AQ[Aib][Orn]FI[dE][αMeY]LQEGGPSSGEPPPSGAE-NH2 [Example 547] : is its EC50 strictly below 400 nM?
true (1)

* * *

- TARGET OF ASSAY: hGLP-1R (Homo sapiens, UniProt P43220)
- Sequence (P43220 24-463): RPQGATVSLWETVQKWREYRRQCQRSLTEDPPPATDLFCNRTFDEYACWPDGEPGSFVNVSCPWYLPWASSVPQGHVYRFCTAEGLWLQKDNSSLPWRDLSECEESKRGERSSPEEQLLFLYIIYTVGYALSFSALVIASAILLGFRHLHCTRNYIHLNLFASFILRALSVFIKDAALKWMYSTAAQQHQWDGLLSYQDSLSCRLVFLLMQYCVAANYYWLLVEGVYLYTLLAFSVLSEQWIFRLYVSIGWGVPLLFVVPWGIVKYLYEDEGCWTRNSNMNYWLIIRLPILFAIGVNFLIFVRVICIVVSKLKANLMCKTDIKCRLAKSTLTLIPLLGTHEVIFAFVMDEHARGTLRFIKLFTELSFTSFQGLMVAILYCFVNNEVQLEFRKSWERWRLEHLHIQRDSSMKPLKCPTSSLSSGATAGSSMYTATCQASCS
- PROCEDURE TEXT: Functional cAMP activity in the presence of 1% HSA
- Assay type: cell-based
- REPORTED CONDITIONS: read-out: cAMP Rel EC50, hGLP-1R
Starred links: 1 amine or outer side, 2 acyl side, 3 side chain; linkers in the order of their positions; H or OH if unused. Non-standard residues stand in square brackets, D forms with d. Groups on a side chain read outwards from the residue. No end group written: not given here. *: point of attachment. C20 diacid = O=C(O)CCCCCCCCCCCCCCCCCCC(=O)*; C18 diacid = O=C(O)CCCCCCCCCCCCCCCCC(=O)*; αMePhe(2-F) = C[C@](N)(Cc1ccccc1F)C(=O)O; γGlu = O=C(O)[C@H](CCC(=O)[*:2])N[*:1]; αMe4Pal = C[C@](N)(Cc1ccncc1)C(=O)O; αMeY = C[C@](N)(Cc1ccc(O)cc1)C(=O)O; αMeF = C[C@](N)(Cc1ccccc1)C(=O)O; 4Pal = N[C@@H](Cc1ccncc1)C(=O)O; αMeL = CC(C)C[C@](C)(N)C(=O)O; αMeS = C[C@](N)(CO)C(=O)O; Orn = NCCC[C@H](N)C(=O)O; AEEA = NCCOCCOCC(=O)O; Aib = CC(C)(N)C(=O)O
Just so you know, the groups by EC50 go like this: label 0 = under 50 nM, label 1 = from 50 nM up to 200 nM, label 2 = 200 nM and over

Which EC50 category applies to H-Y[Aib]QGT[αMePhe(2-F)]TSD[4Pal][αMeS]I[αMeL]LD[Orn]K([AEEA-γGlu-C18 diacid])AQ[αMe4Pal]EFI[dE][αMeY]LIEGGPPS[Aib][Orn]PPPEGE-NH2 [Example 1194] here?
label 1

Form: Item = H-Y[Aib]QGT[αMeF]TSDYSILLDKIAAK([AEEA-AEEA-γGlu-C18 diacid])NFIEYLVEGGPSSGEPPPSEG-NH2 [Example 307] ; Class = ?
label 2

Categorize the following entry: H-Y[Aib]QGT[αMePhe(2-F)]TSD[4Pal][αMeS]I[αMeL]LD[Orn]K([γGlu-γGlu-C18 diacid])AQ[αMe4Pal]EFI[dE][αMeY]LVEGGPSSGEPPPSGE-NH2 [Example 1161]
label 0

// return the class label for H-Y[Aib]QGT[αMePhe(2-F)]TSD[4Pal][αMeS]I[αMeL]LD[Orn]K([AEEA-γGlu-C18 diacid])AQ[Aib][Orn]FI[dE][αMeY]LIEGGPSSGEPPPEGTGE-NH2 [Example 697]
label 0

Textbook exercise: identify the category of the substance given here, H-Y[Aib]QGTFTSD[4Pal]S[Orn][αMeL]LD[Orn]K([γGlu-γGlu-C18 diacid])AQ[αMe4Pal]AFIEYLIAGGPSSGEPPPSGE-NH2 [Example 983] , according to its measured value.
label 2

Input H-Y[Aib]QGT[αMePhe(2-F)]TSD[4Pal]SILLDKK([AEEA-γGlu-C18 diacid])AQ[Aib]AFIE[αMeY]LEEGGPSSGAPPPSGTGE-NH2 [Example 669] ; output its category
label 0

Sort Y[Aib]QGTFTSD[4Pal]SQ[αMeL]LDKK([AEEA-γGlu-C18 diacid])AQ[αMe4Pal]AFIE[αMeY]LIEGGPSSGAPPPEGS-NH2 [Example 852] into one of the categories.
label 1

Dear colleague, I would appreciate it if you could identify the bin for H-Y[Aib]QGT[αMePhe(2-F)]TSD[4Pal]SI[αMeL]LD[Orn]K([AEEA-γGlu-C18 diacid])AQ[αMe4Pal][Orn]FI[dE][αMeY]LIEGGPSSGAPPPESEE-NH2 [Example 756] and reply at your convenience.
label 0

Band of H-Y[Aib]QGTFTSD[4Pal]SQ[αMeL]LDKK([AEEA-γGlu-C18 diacid])AQ[αMe4Pal]AFIEYLIE[Aib]GPSSGAPPPSG[4Pal]-NH2 [Example 835] ?
label 2

For H-Y[Aib]QGTFTSD[4Pal]SQ[αMeL]LD[Orn]K([γGlu-γGlu-C18 diacid])AQ[αMe4Pal]AFIEYLIE[dA]GPSSGAPPPSGS-NH2 [Example 1017] , which EC50 bin applies?
label 1

GET /class?item= H-Y[Aib]QGTFTSDFSK[αMeL]LDKK([AEEA-γGlu-C20 diacid])AQ[Aib]AFIEWLLAGGPSSGEPPPSEG-NH2 [Example 20]
label 2

Category of H-Y[Aib]QGTFTSD[4Pal]SQ[αMeL]LD[Orn]K([γGlu-γGlu-C18 diacid])AQ[Aib]AFIE[αMeY]LLEGGPSSGAPPPSGSEE-NH2 [Example 946] :
label 2

Please classify: H-Y[Aib]QGTFTSDFS[Orn][αMeL]LDKK([AEEA-γGlu-C18 diacid])AQ[Aib]AFIEYLIE[Aib]GESSGAPPPSGE-NH2 [Example 219]
label 2

Categorize the following entry: H-Y[Aib]QGT[αMePhe(2-F)]TSD[4Pal][αMeS]I[αMeL]LD[Orn]K([γGlu-γGlu-C18 diacid])AA[Aib]EFI[dE][αMeY]LVEGGPSSGEPPPSGS-NH2 [Example 695]
label 0

Consider H-Y[Aib]QGTFTSD[4Pal]SQ[αMeL]LDKK([AEEA-AEEA-γGlu-C18 diacid])AQ[αMe4Pal]AFIEYLIE[Aib]GPSSGAPPPSGS-NH2 [Example 816] . To which EC50 class does it belong?
label 2

Kindly state the category for this substance: Y[Aib]QGT[αMePhe(2-F)]TSDYSILLDKQAAK([AEEA-γGlu-C20 diacid])EFIEYLIEGGPSSGAPPPSEG-NH2 [Example 340]
label 2

Which bin, given its EC50, does H-Y[Aib]QGTFTSD[4Pal]SQ[αMeL]LDKK([γGlu-γGlu-C18 diacid])AQ[αMe4Pal]AFIEWLIEGGPSSGAPPPSGS-NH2 [Example 872] occupy?
label 2

Given H-Y[Aib]QGT[αMePhe(2-F)]TSD[4Pal][αMeS]I[αMeL]LD[Orn]K([γGlu-γGlu-C18 diacid])AQ[αMe4Pal]EFI[dE][αMeY]LIEGGPSSGAPPPSGGGEEE-NH2 [Example 1219] , name the class its EC50 places it in.
label 0

Class (by measured EC50) for Y[Aib]QGTFTSD[4Pal]SQ[αMeL]LDKK([AEEA-γGlu-C18 diacid])AQ[αMe4Pal]AFIEYLIAGGPSSGEPPPSGS-NH2 [Example 828]
label 1
